test-target: ^3 H-nitrendipine binding, membrane preparation obtained from the cortex of the rat brain
experiment: displacement of tritium-labeled nitrendipine in a membrane preparation from the cortex of the rat brain
condition: ^3 H-nitrendipine 0.1 nM, 25° C., 60 min, pH 7.4; unspecific binding with 1 μM nifedipine
Counter-ions that a name gives are not always drawn.
quantity-name: IC50 (nM)

Below: 2 compounds and their reported IC50.
Returns the measured IC50 for the input compound. Input: O=[N+]([O-])c1ccc(SCCN2CCN(CCCC(c3ccc(F)cc3)c3ccc(F)cc3)CC2)cc1 [Example 4, dihydrochloride]
22

And what about the compound Cc1cccc(C)c1NC(=O)CN1CCN(CCCC(c2ccc(F)cc2)c2ccc(F)cc2)CC1 [Lidoflazine, lidoflazine, reference compound] ?
430

I. Fc1ccc(C(CCCN2CCN(CCSc3cccc(Cl)c3)CC2)c2ccc(F)cc2)cc1 [Example 5, dihydrochloride]
II. Cc1ccc(SCCN2CCN(CCCC(c3ccc(F)cc3)c3ccc(F)cc3)CC2)cc1 [Example 2, dihydrochloride]
III. Fc1ccc(SCCN2CCN(CCCC(c3ccc(F)cc3)c3ccc(F)cc3)CC2)cc1 [Example 3, dihydrochloride]
IV. Fc1ccc(C(CCCN2CCN(CCSc3ccc(Cl)cc3)CC2)c2ccc(F)cc2)cc1
Put these in order: smallest IC50 first, largest last. A complete answer lists every label in the requested sequence.
I, IV, III, II
(I: 1.2 nM, IV: 4 nM, III: 7 nM, II: 20 nM)
